assay: Distribution of BI-907828 in orthotopic GBM108 tumor models; assay type: in vivo; settings: athymic nude, mouse, intracranial tumor, po, 10 mg/kg
observed_property: concentration at 24 hr

Q: Answer with the recorded concentration at 24 hr for the compound listed here: Cc1c(C(=O)O)ccc2c3n(nc12)[C@@H]1[C@H](C3)N(CC2CC2)[C@@]2(C(=O)Nc3cc(Cl)ccc32)[C@H]1c1cccc(Cl)c1F
Ans: 0.66 nM

###

test system: P-gp; test: PK and CNS distribution after single intravenous dose, P-gp-knockout; format: in vivo, mouse; settings: FVB, mouse, brain, iv, 10 mg/kg
observed_property: Kp uu
Provide a numeric answer; units are not to be included.

Q: Specify the recorded Kp uu for Cc1c(C(=O)O)ccc2c3n(nc12)[C@@H]1[C@H](C3)N(CC2CC2)[C@@]2(C(=O)Nc3cc(Cl)ccc32)[C@H]1c1cccc(Cl)c1F [BI-907828] , system: P-gp.
Ans: 0.059

###

assay type: in vivo; details: FVB, mouse, brain, po, 10 mg/kg
observed_property: Kp uu

Q: Answer with the recorded Kp uu for the molecule listed here: Cc1c(C(=O)O)ccc2c3n(nc12)[C@@H]1[C@H](C3)N(CC2CC2)[C@@]2(C(=O)Nc3cc(Cl)ccc32)[C@H]1c1cccc(Cl)c1F [BI-907828]
Ans: 0.002

###

experiment: Unbound fraction by rapid equilibrium dialysis, stem cell media; type: in vitro ADME
observed_property: fraction unbound
Provide a numeric answer; units are not to be included.

Q: Answer with the recorded fraction unbound for the compound listed here: Cc1c(C(=O)O)ccc2c3n(nc12)[C@@H]1[C@H](C3)N(CC2CC2)[C@@]2(C(=O)Nc3cc(Cl)ccc32)[C@H]1c1cccc(Cl)c1F
Ans: 0.0224

###

format: in vivo; details: FVB, mouse, plasma, iv, 10 mg/kg
observed_property: clearance (mL/min/kg)
Report only the number, with the unit mL/min/kg understood.

Q: Answer with the recorded clearance for the compound listed here: Cc1c(C(=O)O)ccc2c3n(nc12)[C@@H]1[C@H](C3)N(CC2CC2)[C@@]2(C(=O)Nc3cc(Cl)ccc32)[C@H]1c1cccc(Cl)c1F [BI-907828]
Ans: 0.812

###

experiment: Unbound fraction by rapid equilibrium dialysis, mouse plasma and CNS tissues; assay type: in vitro ADME; conditions: plasma
observed_property: fraction unbound
Provide a numeric answer; units are not to be included.

Q: Answer with the recorded fraction unbound for the compound listed here: Cc1c(C(=O)O)ccc2c3n(nc12)[C@@H]1[C@H](C3)N(CC2CC2)[C@@]2(C(=O)Nc3cc(Cl)ccc32)[C@H]1c1cccc(Cl)c1F [BI-907828]
Ans: 0.0015

###

assay type: in vivo; conditions: FVB, mouse, brain, po, 10 mg/kg
observed_property: AUC(0-inf) (ng·h/mL)
Report only the number, with the unit ng·h/mL understood.

Q: Answer with the recorded AUC(0-inf) for the compound listed here: Cc1c(C(=O)O)ccc2c3n(nc12)[C@@H]1[C@H](C3)N(CC2CC2)[C@@]2(C(=O)Nc3cc(Cl)ccc32)[C@H]1c1cccc(Cl)c1F
Ans: 1220

###

tested on: P-gp; assay: PK and CNS distribution after single intravenous dose, P-gp-knockout; type: in vivo, mouse; details: FVB, mouse, plasma, iv, 10 mg/kg
observed_property: AUC(0-inf) (µg·h/mL)
Report only the number, with the unit µg·h/mL understood.

Q: Answer with the recorded AUC(0-inf) for the compound listed here: Cc1c(C(=O)O)ccc2c3n(nc12)[C@@H]1[C@H](C3)N(CC2CC2)[C@@]2(C(=O)Nc3cc(Cl)ccc32)[C@H]1c1cccc(Cl)c1F
Ans: 310
